target-or-test-system: hemagglutinin (HA) of influenza A/Japan/305/57 H2N2 (Influenza A virus A/Japan/305/1957 …, UniProt P03451 16-562)
procedure-text: ELISA, inactivated whole virions coated; transfection supernatant set 5
Listed here are binders together with their documented OD450.
Unit OD450 implied. Number only.

Look over these answered cases.
binder	measured-attribute	observed
TCN-540 (5060_F05) (antibody, V domains shown) VH: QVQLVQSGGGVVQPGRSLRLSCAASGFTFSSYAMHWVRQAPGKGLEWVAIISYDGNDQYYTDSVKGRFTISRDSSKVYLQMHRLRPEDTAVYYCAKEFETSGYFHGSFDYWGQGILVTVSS VL: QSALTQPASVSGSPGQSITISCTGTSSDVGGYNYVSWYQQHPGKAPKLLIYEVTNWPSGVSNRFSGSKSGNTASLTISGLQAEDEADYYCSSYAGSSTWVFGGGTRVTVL	OD450	3.61
TCN-555 (5246_L16) (antibody, V domains shown) VH: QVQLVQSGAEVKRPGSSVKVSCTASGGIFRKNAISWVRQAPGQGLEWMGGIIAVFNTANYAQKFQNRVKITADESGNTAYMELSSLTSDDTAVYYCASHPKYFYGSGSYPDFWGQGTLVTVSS VL: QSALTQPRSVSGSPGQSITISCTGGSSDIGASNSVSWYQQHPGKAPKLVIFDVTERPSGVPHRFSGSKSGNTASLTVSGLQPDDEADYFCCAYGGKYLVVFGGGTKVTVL	OD450	2.1
TCN-552 (5249_I23) (antibody, V domains shown) VH: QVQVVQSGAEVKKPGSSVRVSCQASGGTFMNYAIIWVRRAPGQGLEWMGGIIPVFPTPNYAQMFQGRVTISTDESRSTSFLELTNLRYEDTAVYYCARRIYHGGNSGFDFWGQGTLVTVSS VL: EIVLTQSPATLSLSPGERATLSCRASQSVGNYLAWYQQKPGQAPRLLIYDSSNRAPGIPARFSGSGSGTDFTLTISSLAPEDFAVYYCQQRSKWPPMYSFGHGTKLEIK	OD450	2.68
TCN-504 (3251_K17) (antibody, V domains shown) VH: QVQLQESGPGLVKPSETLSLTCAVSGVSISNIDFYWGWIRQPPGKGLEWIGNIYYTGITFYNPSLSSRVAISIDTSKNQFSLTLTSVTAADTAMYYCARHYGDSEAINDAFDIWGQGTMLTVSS VL: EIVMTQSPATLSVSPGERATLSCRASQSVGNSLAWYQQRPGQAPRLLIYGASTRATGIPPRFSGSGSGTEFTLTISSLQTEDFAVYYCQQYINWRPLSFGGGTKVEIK	OD450	3.59
TCN-545 (5082_I15) (antibody, V domains shown) VH: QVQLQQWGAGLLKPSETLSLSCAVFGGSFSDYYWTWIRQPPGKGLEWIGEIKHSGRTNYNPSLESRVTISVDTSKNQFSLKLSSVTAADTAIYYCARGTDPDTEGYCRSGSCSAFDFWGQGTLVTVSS VL: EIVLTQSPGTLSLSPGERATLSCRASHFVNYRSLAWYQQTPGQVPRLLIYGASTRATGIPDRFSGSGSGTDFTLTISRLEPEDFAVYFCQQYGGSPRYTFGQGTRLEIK	OD450	0.1

Req: Supply OD450 value. Item: TCN-537 (3194_D21) (antibody, V domains shown) VH: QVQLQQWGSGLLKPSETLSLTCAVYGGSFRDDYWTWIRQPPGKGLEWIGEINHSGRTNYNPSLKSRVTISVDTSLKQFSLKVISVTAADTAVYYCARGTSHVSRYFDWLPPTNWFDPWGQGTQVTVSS VL: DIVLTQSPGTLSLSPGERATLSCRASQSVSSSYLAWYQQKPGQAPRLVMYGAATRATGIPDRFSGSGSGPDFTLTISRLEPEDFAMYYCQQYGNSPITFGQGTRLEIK
Resp: 3.48

Req: Supply OD450 value. Item: TCN-539 (5056_A08) (antibody, V domains shown) VH: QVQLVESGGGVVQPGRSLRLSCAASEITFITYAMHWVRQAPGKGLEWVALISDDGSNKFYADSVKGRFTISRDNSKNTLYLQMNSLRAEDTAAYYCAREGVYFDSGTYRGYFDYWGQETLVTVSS VL: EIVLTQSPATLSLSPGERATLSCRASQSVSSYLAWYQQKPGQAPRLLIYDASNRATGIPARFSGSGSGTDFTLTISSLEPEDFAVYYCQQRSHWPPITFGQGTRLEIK
Resp: 0.07

Ref: patent US20120207760A1
